Test system: HCV replicon
Assay: microbe, parasite or virus in culture
Format: cell-based
Conditions: Replicon IC50 values are determined by firefly luciferase signal; bicistronic replicon, 2 days; read-out: Replicon IC5Os
pIC50: −log10 of the molar value.
property label: pIC50

Consider the following illustrative entries.
1. CCOc1ccc2cc(-c3ccc(NS(=O)(=O)CC)cc3)n(C3CCC3)c2c1; 5.70 to 6.30
2. CCn1c(-c2cccc(NC(=O)Nc3ccc(C)cc3)c2)c(C#N)c2ccc(OC)cc21; < 5.70
3. CC#CCOC(=O)Nc1cccc(-c2c(C#N)c3ccc(OC)cc3n2CC)c1; 5.70 to 6.30
4. CCn1c(-c2ccc(NS(=O)(=O)CC)cc2)c(C#N)c2ccc(O)cc21; 5.70 to 6.30

Specify pIC50 for `CCn1c(-c2ccc(NC(=O)c3ccccc3)cc2)c(C#N)c2ccc(C(F)(F)F)cc21` , system HCV replicon.
< 5.70

###

Test system: HCV replicon
Test: microbe, parasite or virus in culture
Assay type: cell-based
Details: Hepatitis C virus, 48 h, read-out: Replicon IC5Os μM
property label: IC50

Look over these answered cases.
1) CCn1c(NC(=O)C2CC2)c(C#N)c2ccc(OC)cc21; 0.5 to 2 µM
2) CCn1c(NC(C)=O)c(C#N)c2ccc([N+](=O)[O-])cc21; > 2 µM
3) CCCn1c(-c2ccc(NS(=O)(=O)C3CC3)cc2)c(C#N)c2ccc(OC)cc21; 0.5 to 2 µM
4) CCCS(=O)(=O)Nc1ccc(-c2c(C#N)c3cc(OC)ccc3n2CC)cc1; < 0.5 µM
5) CCCn1c(-c2ccc(NS(=O)(=O)CCCCl)cc2)c(C#N)c2ccc(OC)cc21; 0.5 to 2 µM

Identify IC50 associated with the compound `CCC(=O)Nc1ccc(C#Cc2c(C#N)c3ccc(OC)cc3n2CC)cc1`
0.5 to 2 µM

Specify reported IC50 for the compound shown: `CCC(=O)Nc1cccc(C#Cc2c(C#N)c3ccc(OC)cc3n2CC)c1`
0.5 to 2 µM

Note down IC50 recorded for `CCn1c(-c2ccc(OCCN3CC[C@H](O)C3)cc2)c(C#N)c2ccc(OC)cc21`
0.5 to 2 µM

Name the recorded IC50 of the item `CCn1c(NC(=O)c2ccccc2)c(C#N)c2ccc(OC)cc21` in your answer.
< 0.5 µM

Find the measured IC50 of `CCn1c(-c2ccc3c(c2)OCO3)c(C#N)c2ccc(OC)cc21` and report it.
0.5 to 2 µM

###

Entries and their pIC50
Test system: HCV replicon
Test: microbe, parasite or virus in culture
Type: cell-based
Conditions: Hepatitis C virus, 48 h, read-out: Replicon IC5Os
pIC50: −log10 of the molar value.

For orientation, consider the following solved cases.
1. CCOC(=O)Nc1ccc(-c2c(C#N)c3ccc(OCCCn4ccnn4)cc3n2CC)cc1 [Compound 536]; 5.70 to 6.30
2. CCn1c(-c2ccc(S(N)(=O)=O)cc2)c(C#N)c2cc(-c3cccc(OC)c3)ccc21 [Compound 461]; > 6.30
3. CCOC(=O)Nc1cccc(-c2c(C#N)c3ccc(OCCN4CCOCC4)cc3n2CC)c1 [Compound 492]; 5.70 to 6.30
4. CCCNC(=O)N1CCc2cc(-c3c(C#N)c4ccc(OC)cc4n3CC)ccc21 [Compound 680]; > 6.30
5. CCn1c(-c2ccc(CNS(C)(=O)=O)cc2)c(C#N)c2ccc(OC)cc21 [Compound 650]; 5.70 to 6.30

For HCV replicon, give the measured pIC50 of the entry C=Cn1c(-c2ccc(NS(=O)(=O)C3CC3)cc2)c(C#N)c2ccc(OC)cc21 [Compound 635]
> 6.30

Under HCV replicon, report pIC50 for CCn1c(-c2cccc(NC(=O)OC)c2)c(C#N)c2ccc(OC)cc21 [Compound 353]
> 6.30

Output reported pIC50 of the compound CCn1c(-c2ccc(NS(=O)(=O)CCCCl)cc2)c(C#N)c2ccc(C(F)(F)F)cc21 [Compound 369] on HCV replicon.
5.70 to 6.30

Provide pIC50, tested on HCV replicon, for CCn1c(-c2ccc(NS(C)(=O)=O)cc2)c(C#N)c2ccc(OCCF)cc21 [Compound 548] .
5.70 to 6.30

Enter recorded pIC50 with HCV replicon for CCOc1ccc2c(C#N)c(-c3ccc(NS(=O)(=O)CC)cc3)n(CC)c2c1 [Compound 416] here.
> 6.30

Under HCV replicon, report pIC50 for CCn1c(-c2ccc(N(C)S(=O)(=O)CCN3CCSCC3)cc2)c(C#N)c2ccc(OC)cc21 [Compound 698]
5.70 to 6.30

Name the value of pIC50 reported for CCCn1c(-c2ccc(NS(=O)(=O)Cc3ccccc3)cc2)c(C#N)c2ccc(OC)cc21 [Compound 623] when tested on HCV replicon.
5.70 to 6.30

# return pIC50 of CCn1c(-c2ccc(NC(=O)C3CCC3)cc2)c(C#N)c2ccccc21 [Compound 567] (system: HCV replicon)
5.70 to 6.30
